Reported 8OG:A repair function score values are given for each entry in this list.
B1: library; numbered along this chain (parent)
chain: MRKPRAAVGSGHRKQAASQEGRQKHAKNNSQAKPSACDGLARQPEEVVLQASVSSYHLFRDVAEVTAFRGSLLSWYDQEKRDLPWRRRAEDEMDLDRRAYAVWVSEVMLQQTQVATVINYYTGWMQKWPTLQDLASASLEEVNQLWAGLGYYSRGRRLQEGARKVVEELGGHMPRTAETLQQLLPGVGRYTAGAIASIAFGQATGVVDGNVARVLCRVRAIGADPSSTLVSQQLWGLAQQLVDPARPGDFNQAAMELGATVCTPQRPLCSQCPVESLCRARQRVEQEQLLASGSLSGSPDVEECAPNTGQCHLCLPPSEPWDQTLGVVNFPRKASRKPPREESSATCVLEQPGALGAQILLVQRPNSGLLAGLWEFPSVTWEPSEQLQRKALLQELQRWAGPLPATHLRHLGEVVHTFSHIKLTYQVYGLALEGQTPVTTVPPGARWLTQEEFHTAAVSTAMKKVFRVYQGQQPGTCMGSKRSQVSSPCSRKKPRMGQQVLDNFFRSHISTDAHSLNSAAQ

- Variants of: B1
- Method notes: 8OG:A repair function score (normalized; synonymous = 0, nonsense = -1) (normalized log-likelihood score); higher = more repair activity (WT-like);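 further: cells sorted at 72 h after reporter transfection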
- Condition details: with 8OG:A DNA repair reporter (GFP) in HEK-293 MUTYH KO cells
Measured quantity: 8OG:A repair function score

* T263V | -0.0463
* P273N | -0.903
* L361G | -0.729
* Y76C | -1.48
* T417D | -0.0817
* Q450H | 0.0291
* L73H | -0.344
* R60P | -0.0757
* L360D | -1.19
* P244H | -0.418
* S459T | -0.392
